Tested on: OV90 cells
Assay: MTS IC50 dosage calculation with BMS-833923
Assay type: cell-based
Details: Homo sapiens, OV-90; OV90 monolayer, MTS up to 72 hrs
reported_endpoint: IC50
Provide the measurement as a number trailed by its unit.

[Q] Need IC50 of CNCc1ccc(C)c(NC(=O)c2ccc(Nc3nc(-c4ccccc4)c4ccccc4n3)cc2)c1 [BMS-833923] , thanks.
[A] 4 µM

* * *

Tested on: TOV112D cells
Experiment: MTS IC50 dosage calculation with BMS-833923
Format: cell-based
Conditions: Homo sapiens; TOV112D monolayer, MTS up to 72 hrs
reported_endpoint: IC50 (µM)
Write the number in µM without appending the unit.

[Q] Need IC50 of CNCc1ccc(C)c(NC(=O)c2ccc(Nc3nc(-c4ccccc4)c4ccccc4n3)cc2)c1 [BMS-833923] , thanks.
[A] 5
